Source of measurements: ChEMBL document CHEMBL5331120

# experimentalTarget: Trypsin (Homo sapiens, UniProt P07477+P07478+P35030)
# measurementNotes: Stability of compound assessed as trypsin (unknown origin) mediated compound degradation by measuring parent compound remaining measured after 1.5 hrs by RP-HPLC analysis
# Assay type: ADME, protein assay
# studyConditions: trypsin, read-out: Stability
endpointName: remaining at 1.5 h

CC(C)C[C@@H]1NC(=O)[C@H](CCCCN)NC(=O)CNC(=O)C2CCCN2C(=O)[C@H](CCCCN)NC(=O)[C@H](CC(C)C)NC(=O)[C@H](CCCCN)NC(=O)[C@H](CC(C)C)NC(=O)[C@H](CCCCN)NC(=O)[C@@H](N)CC/C=C/CC[C@@H](C(=O)O)NC(=O)[C@H](CCCCN)NC(=O)[C@H](CC(C)C)NC(=O)[C@H](CCCCN)NC1=O (single isomer, unassigned) ... > 40%

q: Which remaining at 1.5 h is reported for this molecule? CC(C)C[C@H](NC(=O)[C@H](CCCCN)NC(=O)[C@H](CC(C)C)NC(=O)[C@H](CCCCN)NC(=O)[C@@H]1CC/C=C/CC[C@H](NC(=O)[C@H](CCCCN)NC(=O)[C@H](CC(C)C)NC(=O)[C@H](CCCCN)NC(=O)[C@@H](N)CC(C)C)C(=O)N[C@@H](CCCCN)C(=O)N2CCC[C@@H]2C(=O)NCC(=O)N[C@@H](CCCCN)C(=O)N1)C(=O)O
a: > 40%

* * *

# System: Escherichia coli
# measurementNotes: Antimicrobial activity against colistin/carbapenem resistant Escherichia coli clinical isolate R2 harboring mcr-1 and NDM-1 gene assessed as inhibition of bacterial growth incubated for 18 hrs by broth microdilution method
# Assay type: functional, organism-based
The source made the active and inactive calls. No cut-off for these calls is given here.
endpointName: Activity

CC(C)C[C@@H]1NC(=O)[C@H](CCCCN)NC(=O)CNC(=O)C2CCCN2C(=O)[C@H](CCCCN)NC(=O)[C@H](CC(C)C)NC(=O)[C@H](CCCCN)NC(=O)[C@H](CC(C)C)NC(=O)[C@H](CCCCN)NC(=O)[C@@H](N)CC/C=C/CCC[C@@H](C(=O)O)NC(=O)[C@H](CCCCN)NC(=O)[C@H](CC(C)C)NC(=O)[C@H](CCCCN)NC1=O (single isomer, unassigned) ... Active
CC(C)C[C@@H]1NC(=O)[C@H](CCCCN)NC(=O)CNC(=O)C2CCCN2C(=O)[C@H](CCCCN)NC(=O)[C@H](CC(C)C)NC(=O)[C@H](CCCCN)NC(=O)[C@H](CC(C)C)NC(=O)[C@H](CCCCN)NC(=O)[C@@H](N)CC/C=C/CC[C@@H](C(=O)O)NC(=O)[C@H](CCCCN)NC(=O)[C@H](CC(C)C)NC(=O)[C@H](CCCCN)NC1=O (single isomer, unassigned) ... Active
CC(C)C[C@H](NC(=O)[C@H](CCCCN)NC(=O)[C@H](CC(C)C)NC(=O)[C@H](CCCCN)NC(=O)[C@@H]1CC/C=C/CC[C@H](NC(=O)[C@H](CCCCN)NC(=O)[C@H](CC(C)C)NC(=O)[C@H](CCCCN)NC(=O)[C@@H](N)CC(C)C)C(=O)N[C@@H](CCCCN)C(=O)N2CCC[C@@H]2C(=O)NCC(=O)N[C@@H](CCCCN)C(=O)N1)C(=O)O ... Active

* * *

# System: Erythrocyte
# measurementNotes: Hemolytic activity in human RBC upto 128 uM incubated for 1 hr by absorbance based analysis
# Assay type: toxicity, cell-based
endpointName: Activity

CC(C)C[C@@H]1NC(=O)[C@H](CCCCN)NC(=O)CNC(=O)[C@H]2CCCN2C(=O)[C@H](CCCCN)NC(=O)[C@H](CC(C)C)NC(=O)[C@H](CCCCN)NC(=O)[C@@H]2CC/C=C\CCC[C@H](NC(=O)[C@H](CCCCN)NC1=O)C(=O)N[C@@H](CCCCN)C(=O)N[C@H](C(=O)O)CC/C=C/CCC[C@H](N)C(=O)N[C@@H](CCCCN)C(=O)N2 ... Non-Toxic
CC(C)C[C@@H]1NC(=O)[C@H](CCCCN)NC(=O)CNC(=O)C2CCCN2C(=O)[C@H](CCCCN)NC(=O)[C@H](CC(C)C)NC(=O)[C@H](CCCCN)NC(=O)[C@H](CC(C)C)NC(=O)[C@H](CCCCN)NC(=O)[C@@H](N)CC/C=C/CCC[C@@H](C(=O)O)NC(=O)[C@H](CCCCN)NC(=O)[C@H](CC(C)C)NC(=O)[C@H](CCCCN)NC1=O (single isomer, unassigned) ... Non-Toxic
CC(C)C[C@H](NC(=O)[C@H](CCCCN)NC(=O)[C@@H]1CC/C=C/CC[C@H](NC(=O)[C@H](CCCCN)NC(=O)[C@@H](N)CC(C)C)C(=O)N[C@@H](CCCCN)C(=O)N[C@@H](CC(C)C)C(=O)N[C@@H](CCCCN)C(=O)N2CCCC2C(=O)NCC(=O)N[C@@H](CCCCN)C(=O)N[C@@H](CC(C)C)C(=O)N[C@@H](CCCCN)C(=O)N1)C(=O)O (single isomer, unassigned) ... Non-Toxic

* * *

# System: Escherichia coli
# measurementNotes: Antimicrobial activity against Escherichia coli ATCC 25922 assessed as inhibition of bacterial growth compound pretreated for 1 hr with trypsin and measured after 18 hrs by broth microdilution method
# Format: functional, organism-based
Active and inactive are the calls of the source. No cut-off for these calls is given here.
endpointName: Activity

CC(C)C[C@@H]1NC(=O)[C@H](CCCCN)NC(=O)[C@@H]2CCC/C=C\CC[C@H](NC(=O)[C@H](CCCCN)NC(=O)[C@H](CC(C)C)NC(=O)[C@H](CCCCN)NC(=O)[C@@H](N)CC/C=C/CCC[C@@H](C(=O)O)NC(=O)[C@H](CCCCN)NC1=O)C(=O)N[C@@H](CCCCN)C(=O)N1CCC[C@@H]1C(=O)NCC(=O)N[C@@H](CCCCN)C(=O)N2 ... Active
CC(C)C[C@H](NC(=O)[C@H](CCCCN)NC(=O)[C@H](CC(C)C)NC(=O)[C@H](CCCCN)NC(=O)[C@@H]1CC/C=C/CC[C@H](NC(=O)[C@H](CCCCN)NC(=O)[C@H](CC(C)C)NC(=O)[C@H](CCCCN)NC(=O)[C@@H](N)CC(C)C)C(=O)N[C@@H](CCCCN)C(=O)N2CCC[C@@H]2C(=O)NCC(=O)N[C@@H](CCCCN)C(=O)N1)C(=O)O ... Active
CC(C)C[C@@H]1NC(=O)[C@H](CCCCN)NC(=O)CNC(=O)[C@H]2CCCN2C(=O)[C@H](CCCCN)NC(=O)[C@H](CC(C)C)NC(=O)[C@H](CCCCN)NC(=O)[C@@H]2CC/C=C\CC[C@H](NC(=O)[C@H](CCCCN)NC1=O)C(=O)N[C@@H](CCCCN)C(=O)N[C@H](C(=O)O)CC/C=C\CC[C@H](N)C(=O)N[C@@H](CCCCN)C(=O)N2 ... Active
CC(C)C[C@@H]1NC(=O)[C@H](CCCCN)NC(=O)[C@@H]2CC/C=C/CC[C@H](NC(=O)[C@H](CCCCN)NC(=O)[C@H](CC(C)C)NC(=O)[C@H](CCCCN)NC(=O)[C@@H](N)CC/C=C/CC[C@@H](C(=O)O)NC(=O)[C@H](CCCCN)NC1=O)C(=O)N[C@@H](CCCCN)C(=O)N1CCC[C@@H]1C(=O)NCC(=O)N[C@@H](CCCCN)C(=O)N2 ... Active
CC(C)C[C@@H]1NC(=O)[C@H](CCCCN)NC(=O)CNC(=O)C2CCCN2C(=O)[C@H](CCCCN)NC(=O)[C@H](CC(C)C)NC(=O)[C@H](CCCCN)NC(=O)[C@H](CC(C)C)NC(=O)[C@H](CCCCN)NC(=O)[C@@H](N)CC/C=C/CC[C@@H](C(=O)O)NC(=O)[C@H](CCCCN)NC(=O)[C@H](CC(C)C)NC(=O)[C@H](CCCCN)NC1=O (single isomer, unassigned) ... Active

Consider the record given below.
q: // returns reported Activity for input CC(C)C[C@@H]1NC(=O)[C@H](CCCCN)NC(=O)CNC(=O)[C@H]2CCCN2C(=O)[C@H](CCCCN)NC(=O)[C@H](CC(C)C)NC(=O)[C@H](CCCCN)NC(=O)[C@@H]2CC/C=C\CCC[C@H](NC(=O)[C@H](CCCCN)NC1=O)C(=O)N[C@@H](CCCCN)C(=O)N[C@H](C(=O)O)CC/C=C/CCC[C@H](N)C(=O)N[C@@H](CCCCN)C(=O)N2
a: Active

* * *

# measurementNotes: Stability of compound assessed as trypsin (unknown origin) mediated compound degradation by measuring parent compound remaining measured after 1 hr by RP-HPLC analysis
# Assay type: ADME, protein assay
# studyConditions: human, read-out: Stability
endpointName: remaining at 1 h

q: Return reported remaining at 1 h; argument: H-LKLKLKPGKLKLKL-OH
a: < 10%
